Reported binding signal by item:
Molecular target: GST-Dm-Relish (Drosophila melanogaster, UniProt Q94527 99-473)
Sequence: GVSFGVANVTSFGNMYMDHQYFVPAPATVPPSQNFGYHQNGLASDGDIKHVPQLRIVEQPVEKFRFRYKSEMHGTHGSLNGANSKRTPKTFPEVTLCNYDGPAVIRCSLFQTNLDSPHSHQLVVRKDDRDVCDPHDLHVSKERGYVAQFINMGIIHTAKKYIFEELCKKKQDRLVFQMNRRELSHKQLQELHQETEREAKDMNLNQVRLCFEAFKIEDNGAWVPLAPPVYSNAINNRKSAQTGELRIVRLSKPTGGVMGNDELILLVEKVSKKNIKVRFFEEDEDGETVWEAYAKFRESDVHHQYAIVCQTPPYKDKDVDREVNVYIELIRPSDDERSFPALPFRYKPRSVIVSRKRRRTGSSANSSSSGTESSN
Assay: protein-binding microarray (PBM); PBM: ~300 nM protein, 6 mM HEPES pH 7.8, 80 mM KCl, 0.5 mM EDTA, 0.5 mM EGTA, 6% glycerol, 35 ng/ul poly-dIdC, 1% milk, 1 h, room temperature; high values mean tight binding
Settings: dsDNA, one strand shown
Attribute Measured: binding signal (z-score)

{"columns": ["Sequence String", "Reported"],
 "data": [
  ["CCGATTAACATCATTTCTTACGGTGATGTTAATCGGGTCTTGATTCGCTTGACGCTGCTG", 1.25],
  ["CCGATTAACATCAAAAGTACCCCTGATGTTAATCGGGTCTTGATTCGCTTGACGCTGCTG", 7.17],
  ["CCGATTAACATCAGGGGATTGTATGATGTTAATCGGGTCTTGATTCGCTTGACGCTGCTG", 4.19],
  ["CCGATTAACATCAGGGGATTTACTGATGTTAATCGGGTCTTGATTCGCTTGACGCTGCTG", 10.5],
  ["CCGATTAACATCAGGGGTAACCCTGATGTTAATCGGGTCTTGATTCGCTTGACGCTGCTG", 4.12]
]}

---

Target: GST-Co-NF-kB (Capsaspora owczarzaki, UniProt F1ARL5 200-546)
Sequence: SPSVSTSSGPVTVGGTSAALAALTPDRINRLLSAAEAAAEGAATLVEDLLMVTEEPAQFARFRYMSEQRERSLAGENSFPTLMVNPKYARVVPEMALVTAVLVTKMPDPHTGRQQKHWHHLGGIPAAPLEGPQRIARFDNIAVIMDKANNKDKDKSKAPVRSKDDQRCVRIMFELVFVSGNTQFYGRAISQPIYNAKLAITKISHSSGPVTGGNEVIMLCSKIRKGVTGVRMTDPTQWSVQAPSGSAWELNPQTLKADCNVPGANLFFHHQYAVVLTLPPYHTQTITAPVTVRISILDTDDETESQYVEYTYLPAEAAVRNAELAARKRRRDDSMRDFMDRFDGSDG
Experiment: protein-binding microarray (PBM); PBM: ~300 nM protein, 6 mM HEPES pH 7.8, 80 mM KCl, 0.5 mM EDTA, 0.5 mM EGTA, 6% glycerol, 35 ng/ul poly-dIdC, 1% milk, 1 h, room temperature; Ap Aiptasia and Nv Nematostella (sea anemones) / Co Capsaspora / Aq Amphimedon (sponge) / Dm Drosophila / Hu human; RHD is the Rel homology domain; high values mean tight binding
Conditions: dsDNA, one strand shown
Form field: log10 of binding signal (one value per entry).
Attribute Measured: log10 of binding signal (log10 of the value in z-score)

{"columns": ["Sequence String", "Assay Target", "log10 of binding signal"],
 "data": [
  ["CCGATTAACATCAGAAGATCCCCTGATGTTAATCGGGTCTTGATTCGCTTGACGCTGCTG", "GST-Co-NF-kB (Capsaspora owczarzaki, UniProt F1ARL5 200-546)", 0.46],
  ["CCGATTAACATCAGGAAATCCCATGATGTTAATCGGGTCTTGATTCGCTTGACGCTGCTG", "GST-Co-NF-kB (Capsaspora owczarzaki, UniProt F1ARL5 200-546)", 0.07],
  ["CCGATTAACATCAGGGGGAATGATGATGTTAATCGGGTCTTGATTCGCTTGACGCTGCTG", "GST-Co-NF-kB (Capsaspora owczarzaki, UniProt F1ARL5 200-546)", 0.82],
  ["CCGATTAACATCACAATCCCCCCTGATGTTAATCGGGTCTTGATTCGCTTGACGCTGCTG", "GST-Co-NF-kB (Capsaspora owczarzaki, UniProt F1ARL5 200-546)", 0.77],
  ["CCGATTAACATCACAACCCCCCCTGATGTTAATCGGGTCTTGATTCGCTTGACGCTGCTG", "GST-Co-NF-kB (Capsaspora owczarzaki, UniProt F1ARL5 200-546)", 0.58],
  ["CCGATTAACATCAAAGAGCCCCCTGATGTTAATCGGGTCTTGATTCGCTTGACGCTGCTG", "GST-Co-NF-kB (Capsaspora owczarzaki, UniProt F1ARL5 200-546)", 0.23],
  ["CCGATTAACATCAAGGGGGAGAATGATGTTAATCGGGTCTTGATTCGCTTGACGCTGCTG", "GST-Co-NF-kB (Capsaspora owczarzaki, UniProt F1ARL5 200-546)", 0.90],
  ["CCGATTAACATCAGGAATTCCCATGATGTTAATCGGGTCTTGATTCGCTTGACGCTGCTG", "GST-Co-NF-kB (Capsaspora owczarzaki, UniProt F1ARL5 200-546)", 0.66],
  ["CCGATTAACATCAGGGAAAATGATGATGTTAATCGGGTCTTGATTCGCTTGACGCTGCTG", "GST-Co-NF-kB (Capsaspora owczarzaki, UniProt F1ARL5 200-546)", 0.53],
  ["CCGATTAACATCAACGGGAATTCTGATGTTAATCGGGTCTTGATTCGCTTGACGCTGCTG", "GST-Co-NF-kB (Capsaspora owczarzaki, UniProt F1ARL5 200-546)", 0.51],
  ["CCGATTAACATCAGAGAATCCCCTGATGTTAATCGGGTCTTGATTCGCTTGACGCTGCTG", "GST-Co-NF-kB (Capsaspora owczarzaki, UniProt F1ARL5 200-546)", 0.53],
  ["CCGATTAACATCAGGGGACGTACTGATGTTAATCGGGTCTTGATTCGCTTGACGCTGCTG", "GST-Co-NF-kB (Capsaspora owczarzaki, UniProt F1ARL5 200-546)", 0.37],
  ["CCGATTAACATCAAAATCTTCCCTGATGTTAATCGGGTCTTGATTCGCTTGACGCTGCTG", "GST-Co-NF-kB (Capsaspora owczarzaki, UniProt F1ARL5 200-546)", 0.62],
  ["CCGATTAACATCAGGGCGTCCCCTGATGTTAATCGGGTCTTGATTCGCTTGACGCTGCTG", "GST-Co-NF-kB (Capsaspora owczarzaki, UniProt F1ARL5 200-546)", 0.31],
  ["CCGATTAACATCACCCGTTTCCCTGATGTTAATCGGGTCTTGATTCGCTTGACGCTGCTG", "GST-Co-NF-kB (Capsaspora owczarzaki, UniProt F1ARL5 200-546)", 0.52],
  ["CCGATTAACATCACGGGATTCCCTGATGTTAATCGGGTCTTGATTCGCTTGACGCTGCTG", "GST-Co-NF-kB (Capsaspora owczarzaki, UniProt F1ARL5 200-546)", 0.47],
  ["CCGATTAACATCAGGGGGGTTACTGATGTTAATCGGGTCTTGATTCGCTTGACGCTGCTG", "GST-Co-NF-kB (Capsaspora owczarzaki, UniProt F1ARL5 200-546)", 0.63],
  ["CCGATTAACATCAGGGAAACTAATGATGTTAATCGGGTCTTGATTCGCTTGACGCTGCTG", "GST-Co-NF-kB (Capsaspora owczarzaki, UniProt F1ARL5 200-546)", 0.57],
  ["CCGATTAACATCAGGAGTTTCCCTGATGTTAATCGGGTCTTGATTCGCTTGACGCTGCTG", "GST-Co-NF-kB (Capsaspora owczarzaki, UniProt F1ARL5 200-546)", 0.51],
  ["CCGATTAACATCACACTTTCCCCTGATGTTAATCGGGTCTTGATTCGCTTGACGCTGCTG", "GST-Co-NF-kB (Capsaspora owczarzaki, UniProt F1ARL5 200-546)", 0.85],
  ["CCGATTAACATCAGGACCCCCCCTGATGTTAATCGGGTCTTGATTCGCTTGACGCTGCTG", "GST-Co-NF-kB (Capsaspora owczarzaki, UniProt F1ARL5 200-546)", 0.47],
  ["CCGATTAACATCAAATATCCCCATGATGTTAATCGGGTCTTGATTCGCTTGACGCTGCTG", "GST-Co-NF-kB (Capsaspora owczarzaki, UniProt F1ARL5 200-546)", 0.66],
  ["CCGATTAACATCATATTGGGAAATGATGTTAATCGGGTCTTGATTCGCTTGACGCTGCTG", "GST-Co-NF-kB (Capsaspora owczarzaki, UniProt F1ARL5 200-546)", 0.31],
  ["CCGATTAACATCAGATATTCCCCTGATGTTAATCGGGTCTTGATTCGCTTGACGCTGCTG", "GST-Co-NF-kB (Capsaspora owczarzaki, UniProt F1ARL5 200-546)", 0.91],
  ["CCGATTAACATCAGCAATTCCCCTGATGTTAATCGGGTCTTGATTCGCTTGACGCTGCTG", "GST-Co-NF-kB (Capsaspora owczarzaki, UniProt F1ARL5 200-546)", 0.76],
  ["CCGATTAACATCACGGAATCCCCTGATGTTAATCGGGTCTTGATTCGCTTGACGCTGCTG", "GST-Co-NF-kB (Capsaspora owczarzaki, UniProt F1ARL5 200-546)", 0.54],
  ["CCGATTAACATCAATTTCCCCCGTGATGTTAATCGGGTCTTGATTCGCTTGACGCTGCTG", "GST-Co-NF-kB (Capsaspora owczarzaki, UniProt F1ARL5 200-546)", 1.09],
  ["CCGATTAACATCAATAACCCCCATGATGTTAATCGGGTCTTGATTCGCTTGACGCTGCTG", "GST-Co-NF-kB (Capsaspora owczarzaki, UniProt F1ARL5 200-546)", 0.36]
]}
